B1: Glucocorticoid receptor, residues 419 to 494; numbered along this chain, P04150 (parent)
chain: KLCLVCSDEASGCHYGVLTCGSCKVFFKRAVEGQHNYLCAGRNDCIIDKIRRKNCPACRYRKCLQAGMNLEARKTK

- Variants of: B1
- method summary: abundance fitness (aPCA) (normalised: wild type 0, dead -1); higher = more abundant; growth selection in yeast, the domain comes from the species named
- settings: Homo sapiens
value kind: abundance fitness
Reply briefly: the number, and no unit.

Q: Value lookup for abundance fitness; key = "E32L"
Result: -0.073

Q: Value lookup for abundance fitness; key = "N54A"
Result: 0.05

Q: Value lookup for abundance fitness; key = "Y60I"
Result: -0.09

Recorded values, source the Human Domainome abundance scans (Beltran et al. 2025).
